Tested on: pyruvate kinase (Bacillus stearothermophilus)
assay procedure: Pyruvate Kinase;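 also: potency is read from the fitted curve at half-maximal effect; the screen sought inhibitors and activators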
condition notes: purified pyruvate kinase, luminescence ATP production; ribose 5-phosphate activator present at AC10
The whole screen tested about 51,000 compounds, of which about 600 (1.2%) were called active. Another 2% or so got no clear call; they are omitted. Only a selection was taken, and actives are over-represented in it overall.
outcome measure: Potency

INSERT INTO results (molecule, system_tested, reading) VALUES
  ('Cc1cccc(-n2ncc3c(N4CCc5ccccc54)ncnc32)c1', 'pyruvate kinase (Bacillus stearothermophilus)', '> 57 µM (inactive)'),
  ('COc1cc(OC)cc(C(=O)Nc2ncc3c(n2)CC(C)(C)CC3=O)c1', 'pyruvate kinase (Bacillus stearothermophilus)', '> 57 µM (inactive)'),
  ('O=C(CN1CCN(C(=O)c2cccc(F)c2)CC1)Nc1ccccc1F', 'pyruvate kinase (Bacillus stearothermophilus)', '> 57 µM (inactive)');

Hey, can you go through the list below and give me Potency for every item?
1. COc1ccc(CCNC(=O)CN2CCC(n3nnc4cc(F)ccc43)CC2)cc1OC
2. CCC12CN3CC(CC)(CN(C1)C31C(=O)N(C)c3ccc(C)cc31)C2=O (stereo not given)

Ans:
> 57 µM (inactive)
> 57 µM (inactive)
